The variants listed here are annotated with their percent of parent.
B1: IER2 (found with purified B55 variants) [human] / B55α WT (immunopurified, Fig. 2) [not stated] (parent complex)
chain 1: MEVQKEAQRIMTLSVWKMYHSRMQRGGLRLHRSLQLSLVMRSARELYLSAKVEALEPEVSLPAALPSDPRLHPPREAESTAETATPDGEHPFPEPMDTQEAPTAEETSACCAPRPAKVSRKRRSSSLSDGGDAGLVPSKKARLEEKEEEEGASSEVADRLQPPPAQAEGAFPNLARVLQRRFSGLLNCSPAAPPTAPPACEAKPACRPADSMLNVLVRAVVAF
chain 2: MAGAGGGNDIQWCFSQVKGAVDDDVAEADIISTVEFNHSGELLATGDKGGRVVIFQQEQENKIQSHSRGEYNVYSTFQSHEPEFDYLKSLEIEEKINKIRWLPQKNAAQFLLSTNDKTIKLWKISERDKRPEGYNLKEEDGRYRDPTTVTTLRVPVFRPMDLMVEASPRRIFANAHTYHINSISINSDYETYLSADDLRINLWHLEITDRSFNIVDIKPANMEELTEVITAAEFHPNSCNTFVYSSSKGTIRLCDMRASALCDRHSKLFEEPEDPSNRSFFSEIISSISDVKFSHSGRYMMTRDYLSVKIWDLNMENRPVETYQVHEYLRSKLCSLYENDCIFDKFECCWNGSDSVVMTGSYNNFFRMFDRNTKRDITLEASRENNKPRTVLKPRKVCASGKRKKDEISVDSLDFNKKILHTAWHPKENIIAVATTNNLYIFQDKVN

# Variants of: B1
# assay: immunopurification of YFP-B55α variants (IP: YFP), Western blot quantification; read off a plot

What does the data say about its percent of parent? Entry: chain 2 Y337A
~2%

What does the data say about its percent of parent? Entry: chain 2 L225A
~25%

What does the data say about its percent of parent? Entry: chain 2 L198A
~3%

What does the data say about its percent of parent? Entry: chain 2 T230A
~50%

What does the data say about its percent of parent? Entry: chain 2 F280A
~83%
